Test system: Vero E6 infected with SARS-CoV-2
Assay: inhibition of SARS-CoV-2 cytopathic effect; higher = more antiviral protection, active = above 15
Conditions: 833.33 nM; 48 h
PROPERTY: inhibition of SARS-CoV-2 cytopathic effect (%)
Provide the reading as a plain figure in %.

| COMPOUND | MEASUREMENT |
| --- | --- |
| NNCCc1ccccc1 | -0.81 |
| N#Cc1c(N)nc(SCc2ncc[nH]2)c(C#N)c1-c1ccc(O)cc1 | -3.13 |

Value lookup for inhibition of SARS-CoV-2 cytopathic effect; key = CN[C@@H]1[C@H](O[C@H]2[C@H](O[C@H]3[C@H](O)[C@@H](O)[C@H](NC(=N)N)[C@@H](O)[C@@H]3NC(=N)N)O[C@@H](C)[C@]2(O)CO)O[C@@H](CO)[C@H](O)[C@H]1O [dihydrostreptomycin]
0.85

inhibition of SARS-CoV-2 cytopathic effect for OCCn1cc(-c2cnc3nnn(Cc4ccc5ncccc5c4)c3n2)cn1 ?
2.71

// query inhibition of SARS-CoV-2 cytopathic effect value for entry Oc1ccc(C(O)CNCCCCCCNCC(O)c2ccc(O)c(O)c2)cc1O (configuration not stated) [hexoprenaline]
-1.49

What value of inhibition of SARS-CoV-2 cytopathic effect has been recorded for this entry: CCC(=O)NC1CCc2cccc(OC)c2C1 (configuration not stated)
7.57

Reported inhibition of SARS-CoV-2 cytopathic effect, compound Nc1ccc(-c2ccc3ncc4ccc(=O)n(-c5cccc(C(F)(F)F)c5)c4c3c2)cn1 : ____
-4.78

Query: inhibition of SARS-CoV-2 cytopathic effect; subject: COc1ccc(C2CNC(=O)C2)cc1OC1CCCC1 (configuration not stated)
-0.223

Item CN1CC[C@@]2(C)c3cc(O)ccc3N(C)[C@@H]12 [eseroline-(-)] has what recorded inhibition of SARS-CoV-2 cytopathic effect?
3.07

Can you look up the measured inhibition of SARS-CoV-2 cytopathic effect of COc1ccc(CCC(=O)c2c(O)cc(O[C@@H]3O[C@H](CO)[C@@H](O)[C@H](O)[C@H]3O[C@@H]3O[C@@H](C)[C@H](O)[C@@H](O)[C@H]3O)cc2O)cc1O [Neohesperidin dihydrochalcone (Nhdc)] for me?
0.9

Query: inhibition of SARS-CoV-2 cytopathic effect; subject: COc1cccc2c1C(=O)c1c(O)c3c(c(O)c1C2=O)C[C@@](O)(C(=O)CO)C[C@@H]3O[C@H]1C[C@H](N2CCO[C@H](OC)C2)[C@H](O)[C@H](C)O1
-7.55

Look at this compound and give its reported inhibition of SARS-CoV-2 cytopathic effect. C[C@@H](c1nc(-c2ccc(C#N)cc2)cs1)[C@](O)(Cn1cncn1)c1cc(F)ccc1F
1.65

What value of inhibition of SARS-CoV-2 cytopathic effect has been reported for the following compound? CC(C)=CCC[C@](C)(O[C@@H]1O[C@H](CO)[C@@H](O)[C@H](O)[C@H]1O)[C@H]1CC[C@]2(C)[C@@H]1[C@H](O)C[C@@H]1[C@@]3(C)CC[C@H](O)C(C)(C)[C@@H]3CC[C@]12C [ginsenoside-C-K]
-0.21

Which inhibition of SARS-CoV-2 cytopathic effect value is on record for CC(C(=O)O)c1ccc2c(c1)CC(=O)c1ccccc1S2 (configuration not stated) ?
0.28

# query: inhibition of SARS-CoV-2 cytopathic effect of entry COc1cc(/C=C/C(=O)CC(=O)/C=C/c2ccc(O)c(OC)c2)ccc1O
4.68

Reported inhibition of SARS-CoV-2 cytopathic effect for COc1ccc2nc(NC(=O)Nc3ccccc3)sc2c1 : what is it?
-1.35

Given C[C@H]1COc2c(C3(N)CC3)c(F)cc3c(=O)c(C(=O)O)cn1c23 , state its recorded inhibition of SARS-CoV-2 cytopathic effect.
0.57

Given CO/N=C(\C(=O)N[C@@H]1C(=O)N2C(C(=O)OCOC(=O)C(C)(C)C)=C(C)CS[C@H]12)c1csc(N)n1 , state its recorded inhibition of SARS-CoV-2 cytopathic effect.
-0.78

Would you kindly share the measured inhibition of SARS-CoV-2 cytopathic effect for NC(=O)CC[C@H](N)C(=O)O ?
0.71
